- Protocol Description: Stability of peptides in serum, remaining activity read in intestinal cells
- Assay type: in vitro ADME, Bovine
- Condition Summary: octapeptides; fraction of peptide activity left after 10 min of incubation in serum at 37° C. compared with undigested sample
No end group written: not given here.
API: label(entry) gives 1 if the entry's Stability in serum (activity remaining) is strictly smaller than 0.09; on equality or larger values it gives -1.

{"Entry Sequence": "FSDKPYIL [Peptide 36040, F SDKPYIL]", "Discrete Label": -1}

Hi there! Is Stability in serum (activity remaining) for DSDKPYIL [Peptide 36038, D SDKPYIL] below 0.09, do you know? -1

Hi there! Is Stability in serum (activity remaining) for ESDKPYIL [Peptide 36039, E SDKPYIL] below 0.09, do you know? -1

Hi there! Is Stability in serum (activity remaining) for VSDKPYIL [Peptide 36053, V SDKPYIL] below 0.09, do you know? 1
